Every entry's value here was drawn from BindingDB's records for doi:10.1016/s0960-894x(01)00529-7.

# TEST: Inhibition of thrombin-induced human gel-filtered platelet aggregation
MEASURED_QUANTITY: log10 of IC50 (log10 of the value in nM)
Plainly stated, the numbers are log10 of IC50 given in nM.

Reference set, count: 4
Request: Supply log10 of IC50 value. Item: O=C(O)C[C@H](NC(=O)C1CCCn2c(CCC3CCNCC3)nnc21)c1cccnc1 (stereo partly specified)
Result: -1.80

Request: Supply log10 of IC50 value. Item: O=C(O)C[C@H](NC(=O)c1cccn2c(CCC3CCNCC3)nnc12)c1cccnc1
Result: -0.43

Request: Supply log10 of IC50 value. Item: O=C(N[C@@H](CNC(=O)C1CCCn2c(C=CC3CCNCC3)nnc21)C(=O)O)OCc1ccccc1 (stereo partly specified)
Result: -1.39

Request: Supply log10 of IC50 value. Item: CC1(C(=O)NC[C@H](NC(=O)OCc2ccccc2)C(=O)O)CCCn2c(CCC3CCNCC3)nnc21 (stereo partly specified)
Result: 0.43

Next:
Request: Supply log10 of IC50 value. Item: O=C(O)C[C@H](NC(=O)C1CCCn2c(/C=C/C3CCNCC3)nnc21)c1cccnc1 (stereo partly specified)
Result: -1.21

Request: Supply log10 of IC50 value. Item: O=C(N[C@@H](CNC(=O)[C@@H]1CCCN(C(=O)CCC2CCNCC2)C1)C(=O)O)OCc1ccccc1
Result: -1.57

Request: Supply log10 of IC50 value. Item: O=C(NC[C@H](NS(=O)(=O)Cc1ccccc1)C(=O)O)C1CCCn2c(/C=C/C3CCNCC3)nnc21 (stereo partly specified)
Result: -1.37

Request: Supply log10 of IC50 value. Item: O=C(N[C@@H](CNC(=O)C1CCCn2c(CCC3CCNCC3)nnc21)C(=O)O)OCc1ccccc1 (stereo partly specified)
Result: -1.17

Request: Supply log10 of IC50 value. Item: O=C(O)C[C@H](NC(=O)C1CCCn2c(/C=C/C3CCNCC3)nnc21)c1cnc2ccccc2c1 (stereo partly specified)
Result: -1.24

Request: Supply log10 of IC50 value. Item: O=C(Cc1cccnc1)N[C@@H](CNC(=O)C1CCCn2c(/C=C/C3CCNCC3)nnc21)C(=O)O (stereo partly specified)
Result: -0.92

Request: Supply log10 of IC50 value. Item: O=C(O)C[C@H](NC(=O)[C@@H]1CCCN(C(=O)CCC2CCNCC2)C1)c1cccnc1
Result: -1.22
